Quick reference: S/N of the listed items.
biological target: alkaline phosphatase (Bos taurus); test: Chemiluminescent signal and signal:background with enhancer polymers (Example XVII); format: biochemical; conditions: polymer NONE; 5 min
Sequence (P19111 20-506 limits assumed): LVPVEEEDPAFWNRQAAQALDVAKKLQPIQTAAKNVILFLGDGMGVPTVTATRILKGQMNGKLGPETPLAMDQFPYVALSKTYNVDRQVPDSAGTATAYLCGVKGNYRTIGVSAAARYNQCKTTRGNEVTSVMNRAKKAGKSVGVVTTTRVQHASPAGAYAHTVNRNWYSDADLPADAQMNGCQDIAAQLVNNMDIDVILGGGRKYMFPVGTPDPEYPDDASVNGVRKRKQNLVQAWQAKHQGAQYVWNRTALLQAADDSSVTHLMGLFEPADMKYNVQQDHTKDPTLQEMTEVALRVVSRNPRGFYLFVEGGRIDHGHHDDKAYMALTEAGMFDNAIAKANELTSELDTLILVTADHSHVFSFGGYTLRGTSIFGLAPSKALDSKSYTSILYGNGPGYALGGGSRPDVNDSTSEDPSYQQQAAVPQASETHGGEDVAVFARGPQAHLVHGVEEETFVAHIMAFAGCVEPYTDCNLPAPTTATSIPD
Answer as a number with no unit attached.

Known S/N results, listed for orientation:
[
  {
    "molecule": "COC1(c2cccc(OP(=O)(O)O)c2)OOC12C1CC3CC2CC(O)(C3)C1 (single isomer, unassigned) [B-OH-AMPPD]",
    "recorded-metric": "S/N",
    "assay-result": 26.3
  },
  {
    "molecule": "COC1(c2cccc(OP(=O)(O)O)c2)OOC12C1CC3CC2CC(Cl)(C3)C1 (stereo not shown) [Cl-AMPPD]",
    "recorded-metric": "S/N",
    "assay-result": 47.9
  },
  {
    "molecule": "COC1(c2cccc(OP(=O)(O)O)c2)OOC12C1CC3CC2CC(O)(C3)C1 (single isomer, unassigned) [A-OH-AMPPD]",
    "recorded-metric": "S/N",
    "assay-result": 32.9
  }
]

[in] Given the entry COC1(c2cccc(OP(=O)(O)O)c2)OOC12C1CC3CC(C1)CC2C3 (stereo not shown) [AMPPD, reference compound] , report its measured S/N.
[out] 21.5
